testTarget: E. coli MurC (Escherichia coli, UniProt P17952)
Sequence (P17952 whole entry): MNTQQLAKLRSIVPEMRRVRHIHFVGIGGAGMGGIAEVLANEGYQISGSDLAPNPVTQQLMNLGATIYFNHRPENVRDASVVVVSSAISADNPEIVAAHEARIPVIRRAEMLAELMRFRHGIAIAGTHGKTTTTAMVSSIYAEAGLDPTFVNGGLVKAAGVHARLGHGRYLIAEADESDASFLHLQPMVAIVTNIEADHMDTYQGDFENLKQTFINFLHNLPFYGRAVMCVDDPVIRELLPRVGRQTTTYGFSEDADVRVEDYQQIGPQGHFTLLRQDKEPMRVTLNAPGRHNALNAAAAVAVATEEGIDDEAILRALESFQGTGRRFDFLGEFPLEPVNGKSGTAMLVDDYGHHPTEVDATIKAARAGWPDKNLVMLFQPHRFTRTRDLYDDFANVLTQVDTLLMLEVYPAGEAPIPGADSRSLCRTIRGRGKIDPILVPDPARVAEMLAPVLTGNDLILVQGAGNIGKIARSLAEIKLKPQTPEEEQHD
testSummary: Malachite green inhibition assay, MurC
Assay type: biochemical
setupConditions: 0.25 h, Table S1, PKIS screening; read-out: RA [%] at 100 µM MurC
API: label(entry) gives criterion met if the entry's remaining activity at 100 µM is strictly smaller than 70%; on equality or larger values it gives criterion not met.

molecule	testTarget	classAssignment
COc1cc2ncn(-c3cc(OCc4ccccc4C(F)(F)F)c(C(N)=O)s3)c2cc1OC [GW843682X]	E. coli MurC (Escherichia coli, UniProt P17952)	criterion met
COc1cccc(-n2cnc3c(N/N=C/c4ccncc4)ncnc32)c1 [GW813360X]	E. coli MurC (Escherichia coli, UniProt P17952)	criterion met
C[C@@H](Oc1cc(-n2cnc3ccc(OCC4CCN(C)CC4)cc32)sc1C(N)=O)c1ccccc1Cl [GSK571989A]	E. coli MurC (Escherichia coli, UniProt P17952)	criterion met
NC(=O)c1sc(-n2cnc3ccc(C(F)(F)F)cc32)cc1OCc1ccccc1Br [GW853606X]	E. coli MurC (Escherichia coli, UniProt P17952)	criterion met
O=C(NCC1CC1)c1ccc(-c2cccc(C(=O)NC3CC3)c2)cc1 [GW806776X]	E. coli MurC (Escherichia coli, UniProt P17952)	criterion not met
Fc1ccc(-c2ncn(CCCN3CCOCC3)c2-c2ccncc2)cc1	E. coli MurC (Escherichia coli, UniProt P17952)	criterion not met
O=C(Nc1n[nH]c2nc(-c3ccco3)c(Br)cc12)C1CC1	E. coli MurC (Escherichia coli, UniProt P17952)	criterion not met
CCCN1CCC(c2ccc(Nc3nc(Nc4cc(F)ccc4C(N)=O)c4cc[nH]c4n3)c(OC)c2)CC1 [GSK1326255A]	E. coli MurC (Escherichia coli, UniProt P17952)	criterion met

## Task Determine if CCCN1CCCC(c2ccc(Nc3nc(Nc4cc(F)ccc4C(N)=O)c4cc[nH]c4n3)c(OC)c2)C1 (centres unmarked) shows remaining activity at 100 µM strictly lower than 70%.
## Result criterion met

## Task remaining activity at 100 µM strictly < 70% for this molecule? Clc1ccc(CNc2nccc(-c3cnn4ncccc34)n2)cc1 [GW781673X]
## Result criterion not met

## Task Determine if CN(c1ccc(NC(=O)Nc2c(Cl)cccc2Cl)cc1)c1ccnc(Nc2cccc(CS(C)(=O)=O)c2)n1 [GW809897X] shows remaining activity at 100 µM strictly lower than 70%.
## Result criterion met

## Task Criterion: remaining activity at 100 µM strictly below 70%. Is it met by COc1ccc2c(-c3ccnc(Nc4cccc(OC(F)(F)F)c4)n3)cnn2n1 [GW810372X] ?
## Result criterion met

## Task Determine if NS(=O)(=O)c1ccc(Nc2ncc(-c3ccccc3)o2)cc1 [GW572399X] shows remaining activity at 100 µM strictly lower than 70%.
## Result criterion not met

## Task Could you please tell me whether remaining activity at 100 µM recorded for `CN1CCC(n2cnc(-c3ccc(F)cc3)c2-c2ccnc(Nc3ccccc3)n2)CC1` is less than 70%?
## Result criterion not met

###

testTarget: E. coli MurC (Escherichia coli, UniProt P17952)
testSummary: Malachite green inhibition assay, MurC
Assay type: biochemical
setupConditions: residual activity at 100 µM compound; Table 1
valueKind: MurC RA [%] (%)
The figure you give is taken to be in %; do not add the unit.

compound	testTarget	MurC RA [%] [%]
CCCN1CCCC(c2ccc(Nc3nc(Nc4cc(F)ccc4C(N)=O)c4cc[nH]c4n3)c(OC)c2)C1 (centres unmarked)	E. coli MurC (Escherichia coli, UniProt P17952)	29
COc1ccc(-c2nn3ncccc3c2-c2ccnc(Nc3cccc(C(F)(F)F)c3)n2)cc1	E. coli MurC (Escherichia coli, UniProt P17952)	10
N#Cc1ccc(Oc2nccc(-c3c(-c4ccc(F)cc4)ncn3C3CCNCC3)n2)cc1	E. coli MurC (Escherichia coli, UniProt P17952)	48
Cc1cc(-c2ccco2)cc(C)c1/C=C/c1cncc(-c2nn[nH]n2)c1	E. coli MurC (Escherichia coli, UniProt P17952)	70

Consider now this further compound.
## Task Indicate the recorded MurC RA [%] value for this compound: `Nc1ccc(C#Cc2cncnc2Nc2ccc(OCc3cccc(F)c3)c(Cl)c2)cc1`
## Result 43
